Origin of the recorded values: paper PMC2674315

- TESTED_SYSTEM: T1, Sam domain of the EphA2 receptor, polyHis-tag cut with thrombin (human, UniProt P29317 901-976)
- T1 sequence (looked up): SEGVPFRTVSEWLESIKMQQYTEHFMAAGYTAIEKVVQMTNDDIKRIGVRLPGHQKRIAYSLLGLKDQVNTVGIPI
- PROTOCOL_NOTES: ITC
REPORTED_METRIC: Kd (µM)
State just the number; it will be interpreted in µM.

**Query** Value lookup for Kd; key = Ac-EGLVHNGWDDLEFLSDITEEDL-NH2 [Shiptide (minimal peptide region of Ship2-Sam)]
**Result** 19
